Where these numbers come from: patent US20220009894A1

Target Entity: RORγt-LBD (Homo sapiens, UniProt P51449)
Sequence (P51449 269-508 limits assumed): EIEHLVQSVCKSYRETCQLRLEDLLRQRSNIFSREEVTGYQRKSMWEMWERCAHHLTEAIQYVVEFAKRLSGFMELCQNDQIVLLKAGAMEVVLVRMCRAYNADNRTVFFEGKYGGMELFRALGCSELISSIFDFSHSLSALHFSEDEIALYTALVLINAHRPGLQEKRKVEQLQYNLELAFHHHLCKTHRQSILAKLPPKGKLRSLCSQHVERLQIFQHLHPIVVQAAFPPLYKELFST
Experiment: Time-resolved fluorescence resonance energy-transfer assay (TR-FRET), co-activator peptide recruitment
Type: biochemical
Set-up: unit not given here
Recorded Conditions: upper activation limit; His-RORγt-LBD, SRC peptide
Field: TR-FRET Biochemical Amax. Provide a value for each of the compounds that follow.
Numbers only.

Smiles Structure	Recorded Number
CS(=O)(=O)N1CCN2c3ccc(/C=C/c4c(Cl)cccc4C(F)(F)F)cc3N(S(=O)(=O)c3cccc(C(F)(F)F)c3)C[C@@H]2C1	0.82

Please state TR-FRET Biochemical Amax for every compound in the list that follows.
1. O=S(=O)(c1cccc(C(F)(F)F)c1)N1C[C@@H]2COCCN2c2ccc(-c3cc(F)cc(OC(F)F)c3)cc21
2. CS(=O)(=O)N1CCN2c3ccc(-c4cc(F)cc(OC(F)F)c4)cc3N(S(=O)(=O)c3cccc(C(F)(F)F)c3)C[C@@H]2C1
3. C/C(=C\c1ccc2c(c1)N(S(=O)(=O)c1cccc(C(F)(F)F)c1)C[C@@H]1CN(C[C@@H](O)CO)CCN21)c1c(F)cccc1Cl
4. C/C(=C\c1ccc2c(c1)N(S(=O)(=O)c1cccc(C(F)(F)F)c1)C[C@@H]1CN(C(N)=S)CCN21)c1c(F)cccc1Cl
5. CCOC(=O)C(=O)N1CCN2c3ccc(/C=C(\C)c4c(F)cccc4Cl)cc3N(S(=O)(=O)c3cccc(C(F)(F)F)c3)C[C@@H]2C1

-- reply
[0.75, 1.22, 1.21, 0.89, 0.89]
